assay: Pharmacokinetic study after intravenous injection; conditions: male, Wistar, rat, plasma, iv, 10 mg/kg
measurement-type: half-life (min)
Express it in min; write the number only.

Item C=C(C)[C@@H]1CC[C@]2(C(=O)O)CC[C@]3(C)[C@H](CC[C@@H]4[C@@]5(C)CC[C@H](O)C(C)(C)[C@@H]5CC[C@]43C)[C@@H]12 [Betulinic Acid (II), 33-hydroxy-lup-20(29)-en-28-oic acid, reference compound] : provide half-life
15.9

----------
tested on: A549; experiment: three day MTT cytotoxicity assay, A549; format: cell-based, human; details: ratio of IC50 of NIH 3T3 cells to A549
measurement-type: Specific Index (SI) for cell lines A549
Answer using only a numeral; do not append any unit.

Item C=C(C)[C@@H]1CC[C@]2(C(=O)O)CC[C@]3(C)C(CCC4[C@@]5(C)Cc6c([nH]c7ccc(Cl)cc67)C(C)(C)C5CC[C@]43C)C12 (some centres unmarked) : provide Specific Index (SI) for cell lines A549
0.644

Item C=C(C)[C@@H]1CC[C@]2(C(=O)O)CC[C@]3(C)[C@H](CC[C@@H]4[C@@]5(C)Cc6c([nH]c7c(Cl)cccc67)C(C)(C)[C@@H]5CC[C@]43C)[C@@H]12 : provide Specific Index (SI) for cell lines A549
1.356

Item C=C(C)[C@@H]1CC[C@]2(C(=O)O)CC[C@]3(C)[C@H](CC[C@@H]4[C@@]5(C)Cc6c([nH]c7ccc(OC)cc67)C(C)(C)[C@@H]5CC[C@]43C)[C@@H]12 : provide Specific Index (SI) for cell lines A549
0.915

Item CC(C)[C@@H]1CC[C@]2(C(=O)O)CC[C@]3(C)[C@H](CC[C@@H]4[C@@]5(C)Cc6c(oc7ccccc67)C(C)(C)[C@@H]5CC[C@]43C)[C@@H]12 : provide Specific Index (SI) for cell lines A549
2.817

----------
assay: in vivo; settings: male, Wistar, rat, iv, 10 mg/kg
measurement-type: AUC (ng·h/mL)
Express it in ng·h/mL; write the number only.

Item CC(C)[C@@H]1CC[C@]2(C(=O)O)CC[C@]3(C)C(CCC4[C@@]5(C)CC/C(=N/Oc6ccc([N+](=O)[O-])cc6)C(C)(C)C5CC[C@]43C)C12 (stereo partly shown) [MJ1098-RS (III)] : provide AUC
43600

----------
system: HBL100; experiment: three day MTT cytotoxicity assay, HBL100; format: cell-based, human; settings: ratio of IC50 of NIH 3T3 cells to HBL100
measurement-type: Specific Index (SI) for cell lines HBL100

Item C=C(C)[C@@H]1CC[C@]2(C(=O)O)CC[C@]3(C)[C@H](CC[C@@H]4[C@@]5(C)Cc6c([nH]c7c(Cl)cccc67)C(C)(C)[C@@H]5CC[C@]43C)[C@@H]12 [Compound 9] : provide Specific Index (SI) for cell lines HBL100
1

Item CC(C)[C@@H]1CC[C@]2(C(=O)O)CC[C@]3(C)[C@H](CC[C@@H]4[C@@]5(C)Cc6c(oc7ccccc67)C(C)(C)[C@@H]5CC[C@]43C)[C@@H]12 [Compound 12] : provide Specific Index (SI) for cell lines HBL100
<1

Item C=C(C)[C@@H]1CC[C@]2(C(=O)O)CC[C@]3(C)C(CCC4[C@@]5(C)Cc6c(n(C)c7ccccc67)C(C)(C)C5CC[C@]43C)C12 (stereo partly drawn) [Compound 3] : provide Specific Index (SI) for cell lines HBL100
0.775

----------
test system: K562; experiment: three day MTT cytotoxicity assay, K562; format: cell-based, human; conditions: ratio of IC50 of NIH 3T3 cells to K562
measurement-type: Specific Index (SI) for cell lines K562

Item C=C(C)[C@@H]1CC[C@]2(C(=O)O)CC[C@]3(C)C(CCC4[C@@]5(C)Cc6c(oc7ccccc67)C(C)(C)C5CC[C@]43C)C12 (stereo partly drawn) [Compound 11] : provide Specific Index (SI) for cell lines K562
<0.952

Item C=C(C)[C@@H]1CC[C@]2(C(=O)NCC(=O)O)CC[C@]3(C)C(CCC4[C@@]5(C)Cc6c([nH]c7ccc(Cl)cc67)C(C)(C)C5CC[C@]43C)C12 (stereo partly drawn) [Compound 24] : provide Specific Index (SI) for cell lines K562
<0.56

Item CC(C)[C@@H]1CC[C@]2(C(=O)O)CC[C@]3(C)[C@H](CC[C@@H]4[C@@]5(C)Cc6c([nH]c7ccc(Cl)cc67)C(C)(C)[C@@H]5CC[C@]43C)[C@@H]12 [Compound 6] : provide Specific Index (SI) for cell lines K562
<0.952

Item C=C(C)[C@@H]1CC[C@]2(C(=O)O)CC[C@]3(C)[C@H](CC[C@@H]4[C@@]5(C)Cc6c([nH]c7ccc(F)cc67)C(C)(C)[C@@H]5CC[C@]43C)[C@@H]12 [Compound 7] : provide Specific Index (SI) for cell lines K562
>1.826

Item C=C(C)[C@@H]1CC[C@]2(C(=O)O)CC[C@]3(C)[C@H](CC[C@@H]4[C@@]5(C)Cc6c([nH]c7ccc(OC)cc67)C(C)(C)[C@@H]5CC[C@]43C)[C@@H]12 [Compound 10] : provide Specific Index (SI) for cell lines K562
<0.38

Item CC(C)[C@@H]1CC[C@]2(C(=O)O)CC[C@]3(C)C(CCC4[C@@]5(C)Cc6c(n(C)c7ccccc67)C(C)(C)C5CC[C@]43C)C12 (stereo partly drawn) [Compound 4] : provide Specific Index (SI) for cell lines K562
>1.843
